- Test system: KM12 colon
- Procedure Summary: NCI tumour cell line growth inhibition, 48 h
# key: entry, value: TGI

CCOC(=O)c1cc(NC(=O)N(CCC#N)CCN(C(=O)N[C@@H](Cc2ccccc2)C(=O)N[C@@H](CC(C)C)C(=O)NC)c2ccccc2)ccc1OC = > 100 µM
COC1CC(C)(N)C(O)C(C)O1 (stereo not drawn) = > 100 µM

Then there is this compound:
GET /values?readout=TGI&system=KM12 colon&item= C[C@@H]1CCC[C@]2(C)O[C@H]2CC[C@@](C)(O)[C@@H]2CC3=C(CO)C(=O)O[C@H]3[C@H]1O2
> 50 µM

---

- Tested on: OVCAR-3 ovarian
- Procedure Summary: NCI tumour cell line growth inhibition, 48 h; in the data active = GI50 below about 0.43 µM; inactive = the rest
Hello, when you answer, please use one of the following outcomes: yes (active), no (inactive)

# count of solved cases: 5
Cc1ccc(C2=C(c3ccc(C)cc3)C3(c4ccc(C)cc4)[C@@H](C#N)[C@H](C#N)C2(c2ccc(C)cc2)S3=O)cc1 (stereo partly specified) = no
Cc1c2cnccc2c(C)c2c1c1cc(CO)ccc1n2C = yes
Cc1ccc(-c2cc(C(=O)N3N=C(c4ccc(N)cc4)CC3c3ccc(Cl)cc3)c3ccccc3n2)cc1 (stereo unspecified) = no
CN([O-])c1nc(N(C)[O-])nc(N2CCOCC2)n1.CN([O-])c1nc(N(C)[OH2+])nc(N2CCOCC2)n1.[Fe+3] = no
COC(=O)[C@@H](C[C@H](Cc1ccccc1)NC(=O)c1csc([C@@H](C[C@H](C(C)C)N(C)C(=O)[C@@H](NC(=O)[C@H]2CCCCN2C)C(C)C)OC(C)=O)n1)NC(=O)OCc1ccccc1 = yes

# input for lookup
Hello, I am checking results. What call was entered for COc1ccc2c(c1)C(=O)c1c-2n(CCCNCCO)c(=O)c2ccccc12 ?
yes

---

- System: CAKI-1 renal
- Procedure Summary: NCI tumour cell line growth inhibition, 48 h
The threshold is inclusive: TGI of exactly 20 µM counts as yes (1); values below receive no (0).

Is TGI for c1ccc2cc(CN3CCC(C4CCN(Cc5ccc6ccccc6c5)CC4)CC3)ccc2c1 at or above 20 µM?
no (0)

Check the entry COC(=O)C1=C2SCc3ccc(cc3)CSC3=C(C(=O)OC)SC(=C(S2)S1)S3 : does TGI equal or exceed 20 µM?
yes (1)

---

- Test system: CCRF-CEM leukemia
- Procedure Summary: NCI tumour cell line growth inhibition, 48 h
Reported Endpoint: TGI

Reference set, count: 8
Cc1c(C(N)=O)sc2c1c(=O)n(Cc1ccccc1)c1nnc(SCC(=O)Nc3ccc(Cl)cc3)n21 = > 100 µM
O=c1[nH]nc(Cc2ccccc2)n1/N=C\CC/C=N\n1c(Cc2ccccc2)n[nH]c1=O = > 100 µM
CCCCCCc1nn2c(-c3ccncc3)nnc2s1 = > 10 µM
O=C1CCC(O)=C1N=Nc1cc(Cl)cc(Cl)c1 = > 100 µM
O=C1OCC2=C1C(c1cccc(Cl)c1)c1cc3c(cc1N2CCO)OCO3 (centres undefined) = > 100 µM
CN(C)CCNc1ccc(NCCN(C)C)c2c1C(=O)c1ncsc1C2=O = 10.9 µM
NC(=O)c1cccc(N2Cc3ccccc3OC3=C2C(=O)c2c(O)ccc(O)c2C3=O)c1 = 0.595 µM
CCOc1cc2c[n+](C)c3c4cc(OC)c(OC)cc4ccc3c2cc1OC = > 100 µM

Here is the next item to consider.
// lookup TGI for Cc1ccc(/C=C2\N=C(N3CCOCC3)NC2=O)cc1
> 100 µM

---

- System: M14 melanoma
- Procedure Summary: NCI tumour cell line growth inhibition, 48 h
Reported Endpoint: TGI

CC1(C)C(=O)/C(=C\c2ccccn2)C[C@]2(C)[C@H]3CC[C@@H]4[C@@H](C(=O)/C=C/c5ccccn5)CC[C@@]4(C)[C@]3(C)CC[C@@H]12 = 3.14 µM
O=C1OC2C(O)COC2(O)C1(O)Cc1c[nH]c2ccccc12 (stereo not given) = > 100 µM
Nc1nc2c(nc(N)n2Cc2ccccc2)c(=O)[nH]1 = > 100 µM
Cc1ccc(S(=O)(=O)NC(=O)Nc2ccc(C(=O)O)c(O)c2)cc1 = > 100 µM
O=C(CCN1CCCC1)CC(c1ccccc1)c1c(O)c2ccccc2oc1=O (stereo not given) = > 100 µM
C/C=N\n1c(C)n[nH]c1=O = > 100 µM
CCN(CC)c1ccc2cc(-c3nc(-c4ccccc4)n[nH]3)c(=O)oc2c1 = > 100 µM
Cc1nc2cc(-n3c(-c4ccc(F)cc4)nc4ccccc4c3=O)ccc2n1Cc1ccccc1 = 4.62 µM
CC(=O)c1cc2c(c(O)c1C)C(=O)C(=O)c1c(O)cccc1-2 = 0.121 µM
O=C(/C(=C\c1ccccc1)CN1CCOCC1)c1ccc(Br)cc1 = 3.27 µM

# query: TGI of entry CCOC(=O)c1cc2c(c3ccsc13)C1(C)CCC3c4ccc(OC)cc4CCC3C1C2 (stereo not given)
> 100 µM

Name the reported TGI value associated with the compound COc1ccc(C2C=C(c3ccccc3)Nc3nnnn32)cc1 (stereo not given)
> 100 µM

Endpoint output: TGI of CCCCCCC1NN(C(C)=O)C(CCCCCC)NN1C(C)=O (stereo not given) . Value?
> 100 µM

Quick check: TGI of FC(F)(F)C1(Cl)C(Cl)(c2ccccc2)C1(Cl)c1ccccc1 (stereo not given) ?
30.2 µM

# lookup: TGI of NC1CSc2ccccc2NC1=O (stereo not given)
> 100 µM

---

- Test system: MCF7 breast
- Procedure Summary: NCI tumour cell line growth inhibition, 48 h
Reported Endpoint: TGI

These recorded examples may help you get a feel for the data.
O=C(O)C(Cc1c[nH]c2ccccc12)C(=O)NO (stereo not given) = > 100 µM
O=C(CON1C(=O)c2ccccc2C1=O)c1ccccc1 = > 100 µM
O=c1[nH]nc(Cc2ccccc2)n1/N=C\CC/C=N\n1c(Cc2ccccc2)n[nH]c1=O = > 100 µM
COC(=O)[C@@H](Cc1ccccc1)NNC(=O)OC(C)(C)C = > 100 µM
COc1cc(C2c3[nH]c4ccccc4c3[C@@H](Nc3ccc(F)cc3)[C@H]3COC(=O)N23)cc(OC)c1O (stereo not given in full) = > 10 µM
N#Cc1c(N)nc(Nc2cccc3ccccc23)c(C#N)c1C#N = > 10 µM
S=C1NCN2CCN(CC2)CNC(=S)C(=S)NCN2CCN(CC2)CNC1=S = > 100 µM
Nc1nc(N)c2cc(CNc3ccc(C(=O)NC(CC(=O)O)C(=O)O)cc3)ccc2n1 (stereo not given) = > 100 µM
CN(C)c1ccc(/C=C2\Oc3ccccc3C2=O)cc1 = > 100 µM

Consider the record given below.
State the recorded TGI for this entry: CCOC(=O)c1cc(NC(=O)N(CCC#N)CCN(C(=O)N[C@@H](Cc2ccccc2)C(=O)N[C@@H](CC(C)C)C(=O)NC)c2ccccc2)ccc1OC
> 100 µM

---

- Tested on: SK-OV-3 ovarian
- Procedure Summary: NCI tumour cell line growth inhibition, 48 h
Catalogue of TGI readings, one per entry.

Below are worked cases with known answers.
N#CC(=N)c1ncn(CCO)c1NC(=O)C(F)(F)F = > 100 µM
N#CC1(C#N)C2=C(CCCC2)NC(c2ccc(Br)cc2)C1(C#N)C#N (stereo not given) = > 56.4 µM
COc1ccc(/C=C/C(=O)c2cccc(B(O)O)c2)cc1O = > 100 µM
Cc1cc(Nc2cccc(F)c2)nc(NCc2ccccc2)n1 = 22.5 µM

Here's the next entry for you.
Give its TGI value. Item: CC1(C)C(=O)/C(=C\c2ccccn2)C[C@]2(C)[C@H]3CC[C@@H]4[C@@H](C(=O)/C=C/c5ccccn5)CC[C@@]4(C)[C@]3(C)CC[C@@H]12
> 100 µM

---

- Tested on: CCRF-CEM leukemia
- Procedure Summary: NCI tumour cell line growth inhibition, 48 h
Reported Endpoint: TGI

Look at this molecule and give its reported TGI. CC(=O)OC/C=C(\C)CCC(Br)C(C)(C)Br (centres undefined)
> 10 µM

Fill in: TGI of CC(C)(C)OC(=O)Nc1nnc(S(N)(=O)=O)s1 is ___
> 100 µM

For the molecule shown here, c1ccc2cc(CN3CCC(C4CCN(Cc5ccc6ccccc6c5)CC4)CC3)ccc2c1 , give the reported TGI.
> 43.4 µM

Would you kindly share the measured TGI for CNC(=O)C(C)C1C(=O)/C(=C(O)/C=C\C(C)=C\C(C)C2OC3(C)OC(C=CC34CO4)C2C)C(=O)N1C1CCC(O)C(C)O1 (centres undefined) ?
> 100 µM

---

- Tested on: SN12C renal
- Procedure Summary: NCI tumour cell line growth inhibition, 48 h
List of GI50 values.

O[N+]1=CC=CCC1=S.On1ccccc1=S.[Zn] = 1 µM
COc1ccc(/C=N/C2=C(C#N)C(c3ccccc3)c3c(ccc4ccccc34)O2)cc1 (configuration not stated) = 4.23 µM
COc1cccc2c1-c1ccccc1C2=O = 4.85 µM
COC(=O)C(N)CSC(c1ccccc1)(c1ccccc1)c1ccccc1 (configuration not stated) = 0.863 µM
C1CN1c1nc(N2CC2)nc(N2CC2)n1 = 4.32 µM
Clc1ccc(C2c3ccccc3-c3nccn32)c(Cl)c1 (configuration not stated) = 13.8 µM

For the next question, use this molecule.
For C[C@]12CCC3c4ccc(O)cc4CCC3C1CC[C@@]2(O)C#Cc1ccc(C#C/C=C\C#Cc2ccccc2N)cc1 (some centres not stated) , what is its reported GI50?
21.7 µM
